Tested on: KM12 colon
Test: NCI-60 one-dose screen, 48 h
Conditions: 10 µM unless noted
The panel holds about 83,000 compounds, 20% with a hit somewhere; the sample as a whole holds those more often. Active and inactive are the calls of the source. The calls were made as follows: active = growth percent below 10; inactive = the rest.
Outcome codes: active, inactive

INSERT INTO measurements (compound, assigned_label) VALUES
  ('COc1cccc(NC(=O)NCCNc2nccc(-c3c(-c4ccc(F)cc4)nc4sccn34)n2)c1', 'inactive'),
  ('CCCCn1c(Cc2ccc(OC)cc2)nc2cc(OC)c(OC)cc2c1=O', 'inactive'),
  ('CCCNC(=O)Oc1ccc(/C(=C(/CC)Cc2ccccc2)c2ccc(OCCN(CC)CC)cc2)cc1', 'inactive'),
  ('COc1ccc(/C=C2\CCCC3=C2N=C2SC=NN2C3c2ccc(OC)c(OC)c2)cc1OC (stereo unspecified)', 'inactive'),
  ('CC1C(=O)CCCC1=O', 'inactive'),
  ('CCCCCSc1ccc2nc(NC(=O)OCCC)sc2c1', 'inactive'),
  ('COC(=O)c1c[n+]([O-])ccc1OC', 'inactive'),
  ('CCCCCCCCCc1cc[n+](CC(=O)c2ccc([N+](=O)[O-])cc2)cc1', 'active'),
  ('COc1ccc(-c2nc(SCC(C)C)nc(Nc3ccc(C(=O)O)cc3)c2C#N)cc1', 'inactive'),
  ('COc1ccc(CN2C(=O)/C(=C\C(=O)c3ccc(OCCN4CCCCC4)cc3)c3ccccc32)cc1', 'inactive'),
  ('OCC(O)C(O)CC1SCCS1 (stereo unspecified)', 'inactive');

The measured values listed here are drawn from PubChem BioAssay (NCI).
